system: MDA-MB-435 melanoma; test: NCI-60 one-dose screen, 48 h (100 = growth as untreated, 0 = no growth, -100 = all killed); settings: 10 µM unless noted
Compounds without any hit were thinned out: in the full panel of roughly 83,000, 20% have a hit.
Reported growth values for the following compounds.
I only need the number, in %, no unit after it.

Worked cases, answers included:
Lab note: measured growth of NC(=Nc1ccccc1)SCCCCSC(N)=Nc1ccccc1 was 89.4

Lab note: measured growth of Clc1ccc2c(Nc3ccc4oc(NCCN5CCCC5)nc4c3)ccnc2c1 was 101

Lab note: measured growth of CCC(c1ccccc1)c1noc(CCN(CC)CC)n1 (stereo not given) was 110

Lab note: measured growth of CCOC(=O)C1=C(C)N2C(=NC3=C(CCC/C3=C\c3ccc(Cl)cc3)C2c2ccc(Cl)cc2)S1 (stereo not given) was -14

Lab note: measured growth of CC1SC(c2c(Cl)cccc2Cl)N(NC(=O)c2[nH]c3ccc(F)cc3c2-c2ccccc2)C1=O (stereo not given) was 61.9

***
Lab note: measured growth of C=Cc1nn2c(CCC(=O)c3nc4ccccc4[nH]3)nnc2s1 was 100

* * *

Reported growth values for the following compounds.
system: HCT-15 colon; assay: NCI-60 one-dose screen, 48 h (100 = growth as untreated, 0 = no growth, -100 = all killed); settings: 10 µM unless noted
This is part of a sample that, as a whole, favours compounds with a hit. Of some 83,000 tested, about 20% had one in any assay.
I only need the number, in %, no unit after it.

Worked cases, answers included:
Lab note: measured growth of CCOC(=O)C1=C(COCCN)NC(C)=C(C(=O)OC)C1c1ccccc1Cl (stereo unspecified) was 64.6

Lab note: measured growth of Oc1ccccc1C=Nc1ccccc1N=Cc1ccccc1O.[Cu+2] was 56.5

Lab note: measured growth of O=C(C(=O)N1CCCCC1)c1ccc(OC2OC(CO)C(O)C(O)C2O)cc1 (stereo unspecified) was 108

Lab note: measured growth of c1ccc(N2CCN(c3nncc4ccccc34)CC2)nc1 was 108

Lab note: measured growth of NC(N)=NN=c1c(=O)c2ccccc2c1=O was 43.4

***
Lab note: measured growth of CCOC(=O)C1=NN(c2ccc(Cl)cc2)C2C3N(c4ccc(Cl)cc4)N=C(C(=O)OCC)N3c3ccccc3N12 (stereo unspecified) was 121

Lab note: measured growth of O=C(Nc1ccc(C2=NCCCN2)cc1)Nc1ccc(C2=NCCCN2)cc1 was 106

Lab note: measured growth of Cc1scc2c1N(C(=O)CN1CCN(C)CC1)c1ccccc1NC2=O was 107

Lab note: measured growth of CN(CC(=O)Nc1nc2ccccc2[nH]1)S(=O)(=O)c1ccc(Cl)cc1 was 90.8

Lab note: measured growth of CCOc1nc(-c2ccccc2)cc2c(O)c(-c3nnco3)[nH]c(=O)c12 was 23.5

Lab note: measured growth of Nc1ccccc1-c1ccc([N+](=O)[O-])cc1 was 47.8

* * *

tested on: UACC-257 melanoma; test: NCI-60 one-dose screen, 48 h (100 = growth as untreated, 0 = no growth, -100 = all killed); conditions: 10 µM unless noted
The panel holds about 83,000 compounds, 20% with a hit somewhere; the sample as a whole holds those more often.
Reported growth values for the following compounds.
I only need the number, in %, no unit after it.

Lab note: measured growth of CO[C@H]1CC(O[C@@H]2/C(C)=C/C[C@@H]3C[C@@H](C[C@]4(CC[C@H](C)[C@@H](C5CCCCC5)O4)O3)OC(=O)[C@@H]3C=C(C)/C(=N/O)[C@H]4OC/C(=C\C=C\[C@@H]2C)[C@]43O)O[C@@H](C)C1O (some centres undefined) was -81.6

***
Lab note: measured growth of C[n+]1c2ccccc2c(Nc2ccc(N3CCCCC3)cc2)c2[nH]c3ccccc3c21 was -98.7

Lab note: measured growth of Cc1cc(O)c2c(c1)C[C@H]1[C@@H]3CC[C@H]4CC(=O)CC[C@]4(C)[C@H]3CC(=O)[C@]21C was 100

Lab note: measured growth of Cc1c(NCc2nnc3n(Cc4ccccc4)c(=O)c4c5c(sc4n23)CCCC5)c(=O)n(-c2ccccc2)n1C was 80.9
